target-or-test-system: T1, Human Semaphorin3A-Sema Domain, TPP-19068 (human, UniProt Q14563 21-569)
T1 construct: produced inhouse in HEK293-6E; also called human monovalent Sema3A domain
T1 sequence: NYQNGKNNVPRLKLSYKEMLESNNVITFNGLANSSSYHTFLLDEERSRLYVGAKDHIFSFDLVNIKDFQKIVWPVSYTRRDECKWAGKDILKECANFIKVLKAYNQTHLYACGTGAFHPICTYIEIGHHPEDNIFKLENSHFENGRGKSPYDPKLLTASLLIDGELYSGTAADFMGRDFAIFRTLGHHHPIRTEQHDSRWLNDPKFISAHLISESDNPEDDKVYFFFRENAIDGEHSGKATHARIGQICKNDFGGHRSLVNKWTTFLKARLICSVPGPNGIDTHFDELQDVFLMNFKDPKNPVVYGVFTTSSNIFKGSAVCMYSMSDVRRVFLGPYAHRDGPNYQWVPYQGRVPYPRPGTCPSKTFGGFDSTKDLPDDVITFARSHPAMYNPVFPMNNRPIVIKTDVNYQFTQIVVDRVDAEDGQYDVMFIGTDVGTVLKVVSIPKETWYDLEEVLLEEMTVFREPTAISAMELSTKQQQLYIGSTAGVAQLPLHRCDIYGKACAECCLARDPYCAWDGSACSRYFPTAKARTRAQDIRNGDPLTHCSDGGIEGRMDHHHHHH
assay-details: SPR, captured antibody, Sema3A domain analyte
pKd: −log10 of the molar value.
# Lookup of reported pKd keyed by entry

binder	pKd
TPP-25256 (antibody, human IgG1, lambda, V domains shown) VH: EVQLLESGGGLVQPGGSLRLSCAASGFTFDSYEMNWVRQAPGKGLEWVSGISWNSGWIDYADSVKGRFTISRDNSKNTLYLQMNSLRAEDTAVYYCARSGYSSSWFDPDFDYWGQGTLVTVSS VL: QSVLTQPPSVSGAPGQRVTISCTGSSSNIGAGYDVHWYQQLPGTAPKLLIYGNSNRPSGVPDRFSGSKSGTSASLAITGLQAEDEADYYCQSYAGPNPYVVFGGGTKLTVLG	10.31
TPP-15374 (antibody, human IgG1, lambda, V domains shown, human IgG1; also called IgG1, hit from panning; parental mAb) VH: EVQLLESGGGLVQPGGSLRLSCAASGFTFSSYEMNWVRQAPGKGLEWVSGISWNSGSIGYADSVKGRFTISRDNSKNTLYLQMNSLRAEDTAVYYCARSGYSSSWFDPDFDYWGQGTLVTVSS VL: QSVLTQPPSASGTPGQRVTISCTGSSSNIGAGYDVHWYQQLPGTAPKLLIYGNSNRPSGVPDRFSGSKSGTSASLAISGLRSEDEADYYCSSYAGSNPYVVFGGGTKLTVLG	7.82
